Entries and their EC50 values follow.
tested on: Leishmania infantum; assay: Antileishmanial activity against MIL/paromomycin resistant Leishmania infantum LEM 2126 isolate intracellular amastigotes infected in human THP1 cells after 96 hrs by prolong-gold antifade-reagent/DAPI staining based assay; assay type: functional, organism-based; settings: THP-1, 96 h

{"COMPOUND": "O=C(CCCCCCCCCCCCCCC[P+](c1ccccc1)(c1ccccc1)c1ccccc1)c1ccc(O)cc1O.[Br-]", "UNIT NAME": "nM", "EC50": 140}
{"COMPOUND": "C[C@@H]1[C@H](O)[C@@H](C)/C=C/C=C/C=C/C=C/C=C/C=C/C=C/[C@H](O[C@@H]2O[C@H](C)[C@@H](O)[C@H](N)[C@@H]2O)C[C@@H]2O[C@](O)(C[C@@H](O)C[C@@H](O)[C@H](O)CC[C@@H](O)C[C@@H](O)CC(=O)O[C@H]1C)C[C@H](O)[C@H]2C(=O)O [AMPHOTERICIN B]", "UNIT NAME": "nM", "EC50": 160}

Provenance of the data: ChEMBL document CHEMBL4334518
